# log10 of IC50 per record follows
- experimental_system: human PKCθ full length enzyme (Homo sapiens)
- Construct: human PKCθ full length enzyme (Panvera Cat# P2996); purchased Panvera P2996
- Sequence (Q04759 whole entry): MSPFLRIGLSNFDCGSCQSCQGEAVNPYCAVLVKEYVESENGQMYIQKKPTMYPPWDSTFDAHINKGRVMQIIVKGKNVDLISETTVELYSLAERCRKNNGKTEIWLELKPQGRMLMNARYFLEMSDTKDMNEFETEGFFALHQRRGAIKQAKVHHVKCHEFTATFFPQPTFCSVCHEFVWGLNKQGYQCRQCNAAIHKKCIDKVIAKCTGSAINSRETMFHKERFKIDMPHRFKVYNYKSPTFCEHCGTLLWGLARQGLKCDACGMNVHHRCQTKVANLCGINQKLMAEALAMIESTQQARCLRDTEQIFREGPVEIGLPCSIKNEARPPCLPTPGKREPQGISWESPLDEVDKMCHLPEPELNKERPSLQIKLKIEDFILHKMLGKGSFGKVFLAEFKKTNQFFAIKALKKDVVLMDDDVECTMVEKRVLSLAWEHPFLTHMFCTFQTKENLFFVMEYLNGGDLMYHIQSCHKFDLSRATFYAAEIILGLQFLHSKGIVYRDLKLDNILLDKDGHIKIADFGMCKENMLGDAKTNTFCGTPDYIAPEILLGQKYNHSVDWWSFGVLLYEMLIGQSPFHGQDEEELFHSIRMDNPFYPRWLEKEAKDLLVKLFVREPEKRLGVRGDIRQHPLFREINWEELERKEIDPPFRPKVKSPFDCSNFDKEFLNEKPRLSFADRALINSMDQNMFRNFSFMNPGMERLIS
- assay_protocol: PKCθ IMAP assay (fluorescence polarization)
- Format: biochemical
- condition_parameters: human PKCθ full length enzyme, IMAP; average value; read-out: IC50 PKCθ IMAP
Quick note: numbers are log10 of IC50, with nM as the unit.

Study these solved cases before continuing.
> print(dat)
                               input.smiles  experimental.endpoint  reported.value
1  COc1ccc(-c2cncc(C#N)c2Nc2ccc3[nH]ccc3c2)cc1OC          log10 of IC50            2.15
2  Cc1c(Nc2c(C#N)cncc2-c2cccc(-c3ccc(C=O)s3)c2)ccc2[nH]ccc12          log10 of IC50            1.78
3  COc1ccc(-c2cncc(C#N)c2Nc2ccc3[nH]ccc3c2)cc1OCCN1CCOCC1          log10 of IC50            2.52
4  Cc1c(Nc2c(C#N)cncc2-c2cccc(OCCCCCl)c2)ccc2[nH]ccc12          log10 of IC50            1.95

## Input Please list log10 of IC50 recorded for the molecule Cc1c(Nc2c(C#N)cncc2-c2csc(CN3CCN(C)CC3)c2)ccc2[nH]ccc12
## Output 0.70

## Input Please list log10 of IC50 recorded for the molecule COCCNC(=O)c1ccc(-c2cccc(-c3cncc(C#N)c3Nc3ccc4[nH]ccc4c3)c2)cc1
## Output 2.28

## Input Please list log10 of IC50 recorded for the molecule Cc1c(Nc2c(C#N)cncc2-c2cccc3cccnc23)ccc2[nH]ccc12
## Output 2.99

## Input Please list log10 of IC50 recorded for the molecule Cc1c(Nc2c(C#N)cncc2-c2ccc(OCCNCCCO)cc2)ccc2[nH]ccc12
## Output 0.70
